# Target Or Test System: T1, IHF from Haemophilus influenzae (Hi) (Haemophilus influenzae)
# T1 chain: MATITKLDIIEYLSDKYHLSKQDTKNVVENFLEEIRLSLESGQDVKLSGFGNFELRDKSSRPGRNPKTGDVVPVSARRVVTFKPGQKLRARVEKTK
# Measurement Notes: ELISA
Response field label: string, one of label 1 (OD strictly below 0.1 OD) or label 0.

Reference set, count: 3
Binder | Answer Label
TRL1215 (antibody, V domains shown) VH: QVQLVESGTEVKNPGASVKVSCTASGYKFDEYGVSWVRQSPGQGLEWMGWISVYNGKTNYSQNFQGRLTLTTETSTDTAYMELTSLRPDDTAVYYCATDKNWFDPWGPGTLVTVSS VL: DIVMTQSPSASGSPGQSITISCTGTNTDYNYVSWYQHHPGKAPKVIIYDVKKRPSGVPSRFSGSRSGNTATLTVSGLQTEDEADYYCVSYADNNHYVFGSGTKVTVL | label 0
TRL1216 (antibody, V domains shown) VH: QVQLVESGGGVVQPGGSLRVSCAASAFSFRDYGIHWVRQAPGKGLQWVAVISHDGGKKFYADSVRGRFTISRDNSENTLYLQMNSLRSDDTAVYYCARLVASCSGSTCTTQPAAFDIWGPGTLVTVSS VL: DIMLTQPPSVSVSPGQTARITCSGDALPKKYTYWYQQKSGQAPVLLIYEDRKRPSEIPERFSAFTSWTTATLTITGAQVRDEADYYCYSTDISGDIGVFGGGTKLTVL | label 1
TRL1218 (antibody, V domains shown) VH: QVQLLESGADMVQPGRSLRLSCAASGFNFRTYAMHWVRQAPGKGLEWVAVMSHDGYTKYYSDSVRGQFTISRDNSKNTLYLQMNNLRPDDTAIYYCARGLTGLSVGFDYWGQGTLVTVSS VL: DIVLTQSASVSGSPGQSITISCTGTSSDVGGYNYVSWYQQHPGKAPKLMIYDVTTRPSGVSDRFSGSKSGNTASLTISGLQAEDEADYYCSSYSSGSTPALFGGGTQLTVL | label 1

Below: the item to evaluate.
I'd appreciate it if you could check whether TRL1070 (antibody, V domains shown) VH: QVQLVQSGGTLVQPGGSLRLSCAASGFTFSYYSMSWVRQAPGKGLEWVANIKHDGTERNYVDSVKGRFTISRDNSEKSLYLQMNSLRAEDTAVYYCAKYYYGAGTNYPLKYWGQGTRVTVSS VL: DILMTQSPSSLSASVGDRVTITCRASQGIRNDLGWYQQKPGKAPKLLIYAASSLQSGVPSRFSGSGSGTDFTLTISSLQPEDFATYYCLQDYNYPLTFGGGTKVEIKR has OD smaller than 0.1 OD.
label 0

Where do these numbers come from? They come from patent US20220259294A1.
